Read-out: Urokinase-type plasminogen activator receptor (uPAR), PLAUR (gene 5329)
PROTOCOL NOTES: BSK_4H_uPAR: BioMAP Diversity Plus: 4H Assay for Urokinase-type plasminogen activator receptor (uPAR) Biomarker Activity (AID 2283030)
PARTICULARS: primary human endothelial cells (HUVEC); actives raise or lower the signal
Description: BSK_4H is a cell-based, multiplexed-readout assay that uses umbilical vein endothelium, a human vascular primary cell, with measurements taken at 24 hours after chemical dosing in a 96-well plate.BSK_4HAR is an assay component measured in the BSK_4H assay. It measures uPAR antibody related to regulation of gene expression using ELISA technology.Data from the assay component BSK_4HAR was analyzed into 1 assay endpoint. […]
Activity calls are given as the source filed them. Rule for the calls: active = hit-call score of the fitted dose curve at least 0.9, where 1 is the maximum; inactive = score below 0.9.
In this exercise, the only acceptable responses are 1.0 (active), 0.0 (inactive)

Worked cases, answers included:
## Task What did the test return for CCCN(CCC)C(=O)SCC ?
## Result 0.0

## Task What did the test return for COc1nc(C)nc(NC(=O)NS(=O)(=O)c2ccccc2OCCCl)n1 ?
## Result 0.0

## Task What did the test return for CCCCOC(=O)[C@@H](C)Oc1ccc(Oc2ccc(C(F)(F)F)cn2)cc1 ?
## Result 0.0

## Task What did the test return for COC(=O)CSc1cc(N=c2sc(=O)n3n2CCCC3)c(F)cc1Cl ?
## Result 0.0

## Task What did the test return for CC1(C)C(C=C(Cl)Cl)C1C(=O)OCc1cccc(Oc2ccccc2)c1 (stereo not given) ?
## Result 0.0

Continuing:
## Task What did the test return for Cc1nn(C)c(Oc2ccccc2)c1C=NOCc1ccc(C(=O)OC(C)(C)C)cc1 ?
## Result 1.0

## Task What did the test return for CCCCCOC(=O)COc1cc(N2C(=O)C3=C(CCCC3)C2=O)c(F)cc1Cl ?
## Result 0.0

## Task What did the test return for COC(=O)c1ccccc1C(=O)O ?
## Result 0.0

## Task What did the test return for O=C(c1ccccc1)C1CCCCC1 ?
## Result 0.0

## Task What did the test return for CSC(=O)c1cccc2nnsc12 ?
## Result 0.0

## Task What did the test return for CCCCCCC(C)OC(=O)COc1nc(F)c(Cl)c(N)c1Cl (stereo not given) ?
## Result 1.0

## Task What did the test return for CCCOC(=O)NCCCN(C)C ?
## Result 0.0

----------
Read-out: Cyclin Dependent Kinase Inhibitor 1A (CDKN1A), CDKN1A (gene 1026)
PROTOCOL NOTES: LTEA_HepaRG_CDKN1A: Life Technologies and Expression Analysis (LTEA) Assay for Cyclin Dependent Kinase Inhibitor 1A (CDKN1A) using HepaRG (AID 2283450)
PARTICULARS: mRNA level, 48 h; actives raise or lower the signal
Activity calls are given as the source filed them. Rule for the calls: active = hit-call score of the fitted dose curve at least 0.9, where 1 is the maximum; inactive = score below 0.9.
In this exercise, the only acceptable responses are y for active, n for inactive

## Task What did the test return for CC(=O)[C@H]1CC[C@H]2[C@@H]3CCC4=CC(=O)CC[C@]4(C)[C@H]3CC[C@]12C ?
## Result y

## Task What did the test return for Cc1nn(C)c(Oc2ccccc2)c1C=NOCc1ccc(C(=O)OC(C)(C)C)cc1 ?
## Result y

## Task What did the test return for CCCN(CCC)c1c([N+](=O)[O-])cc(C(F)(F)F)c(N)c1[N+](=O)[O-] ?
## Result n

## Task What did the test return for CCN(CC)C(=O)c1cccc(C)c1 ?
## Result n

## Task What did the test return for CC(=O)S[C@@H]1CC2=CC(=O)CC[C@]2(C)[C@H]2CC[C@@]3(C)[C@@H](CC[C@@]34CCC(=O)O4)[C@H]12 ?
## Result n

## Task What did the test return for CCOC(=O)C(C)Oc1ccc(Oc2nc3ccc(Cl)cc3o2)cc1 (stereo not given) ?
## Result n

Continuing:
## Task What did the test return for COC(=O)CSc1cc(N=c2sc(=O)n3n2CCCC3)c(F)cc1Cl ?
## Result n

## Task What did the test return for O=C(O)C1(C(=O)Nc2ccc(Cl)cc2Cl)CC1 ?
## Result n

## Task What did the test return for CC1(C)C(C=C(Cl)Cl)C1C(=O)OCc1cccc(Oc2ccccc2)c1 (stereo not given) ?
## Result n

## Task What did the test return for CSC(=O)c1cccc2nnsc12 ?
## Result n
